Molecular target: UniProt P0DTD1
Assay: Inhibition of N7-MTase activity of SARS-CoV-2 N-terminus hexahistidine tag nsp14 expressed in Escherichia coli C2566 using [3H]SAM as substrate incubated for 30 mins in presence of mGpppAC4 synthetic RNA by radioactive filter binding assay
Measured IC50, listed per entry for reference.

| cpd_smiles | assay_target | IC50 (µM) |
| --- | --- | --- |
| Nc1ncnc2c1ncn2[C@@H]1O[C@H](CNS(=O)(=O)c2cccc([N+](=O)[O-])c2)[C@@H](O)[C@H]1O | UniProt P0DTD1 | 3.59 |
| COc1ccc(S(=O)(=O)NC[C@H]2O[C@@H](n3cnc4c(N)ncnc43)[C@H](O)[C@@H]2O)cc1C#N | UniProt P0DTD1 | 0.514 |
| COc1cc([N+](=O)[O-])ccc1S(=O)(=O)NC[C@H]1O[C@@H](n2cnc3c(N)ncnc32)[C@H](O)[C@@H]1O | UniProt P0DTD1 | 5.1 |
| Nc1ncnc2c1ncn2[C@@H]1O[C@H](CNS(=O)(=O)c2ccc(Br)c([N+](=O)[O-])c2)[C@@H](O)[C@H]1O | UniProt P0DTD1 | 2.9 |
| CCOC(=O)CCCCN(C[C@H]1O[C@@H](n2cnc3c(N)ncnc32)[C@H](O)[C@@H]1O)S(=O)(=O)c1ccc(OC)c([N+](=O)[O-])c1 | UniProt P0DTD1 | 0.114 |
| CCN(C[C@H]1O[C@@H](n2cnc3c(N)ncnc32)[C@H](O)[C@@H]1O)S(=O)(=O)c1cccc(Cl)c1 | UniProt P0DTD1 | 0.442 |
| Cc1ccc(S(=O)(=O)NC[C@H]2O[C@@H](n3cnc4c(N)ncnc43)[C@H](O)[C@@H]2O)cc1Cl | UniProt P0DTD1 | 0.344 |
| CCN(C[C@H]1O[C@@H](n2cnc3c(N)ncnc32)[C@H](O)[C@@H]1O)S(=O)(=O)c1ccc(C)c(Cl)c1 | UniProt P0DTD1 | 0.056 |
| Nc1ncnc2c1ncn2[C@@H]1O[C@H](CNS(=O)(=O)c2cccc([N+](=O)[O-])c2Cl)[C@@H](O)[C@H]1O | UniProt P0DTD1 | 2.1 |
| Nc1ncnc2c1ncn2[C@@H]1O[C@H](CNS(=O)(=O)c2ccc(F)c([N+](=O)[O-])c2)[C@@H](O)[C@H]1O | UniProt P0DTD1 | 4.4 |
| Nc1ncnc2c1ncn2[C@@H]1O[C@H](CNS(=O)(=O)c2ccc(Cl)cc2)[C@@H](O)[C@H]1O | UniProt P0DTD1 | 13 |
| CCN(C[C@H]1O[C@@H](n2cnc3c(N)ncnc32)[C@H](O)[C@@H]1O)S(=O)(=O)c1cccc(C#N)c1 | UniProt P0DTD1 | 0.96 |
| CCc1ccc(S(=O)(=O)NC[C@H]2O[C@@H](n3cnc4c(N)ncnc43)[C@H](O)[C@@H]2O)cc1[N+](=O)[O-] | UniProt P0DTD1 | 0.244 |
| COc1ccc(S(=O)(=O)N(CCCCOC(C)=O)C[C@H]2O[C@@H](n3cnc4c(N)ncnc43)[C@H](O)[C@@H]2O)cc1[N+](=O)[O-] | UniProt P0DTD1 | 0.08 |
| CCN(C[C@H]1O[C@@H](n2cnc3c(N)ncnc32)[C@H](O)[C@@H]1O)S(=O)(=O)c1ccc(OC)c(C#N)c1 | UniProt P0DTD1 | 0.019 |
